Measured TGI, listed per entry.
Tested on: LOX IMVI melanoma
experiment notes: NCI tumour cell line growth inhibition, 48 h

CC(=O)N1CCC2(c3ccccc3N(C(C)=O)C2c2ccc(O)cc2)C1C(=O)O (configuration not stated) = > 100 µM
COC(=O)C1=Nc2c(C)nn(-c3ccccc3)c2N=C(c2ccccc2)C1 = > 10 µM

Next item in the queue.
Query block: I would be grateful if you could share the reported TGI for C/C(=N\NC(=O)CC#N)c1c(O)cc(C)oc1=O .
Result block: > 100 µM

====

# reported TGI; entries follow
Test system: SF-268 CNS
experiment notes: NCI tumour cell line growth inhibition, 48 h

O=C(c1ccncc1)C1C(=O)c2ccccc2C1C1(O)c2ccccc2CC1C(O)c1ccncc1 (stereo unspecified) = > 100 µM
O=C(O)c1ccccc1/C=N/N=C1c2ccccc2-c2ccccc21 = 77.1 µM

Query block: Missing value: TGI, SF-268 CNS, entry O=C(O)c1ccc(C2C(=O)N[C@@H]3CCC[C@H]23)cc1 (stereo partly specified) . Fill in?
Result block: > 100 µM

Query block: Query TGI on SF-268 CNS for CC(=O)c1cnc2oc3ccc(O)cc3c2c1-c1ccccc1
Result block: > 100 µM

Query block: Checklist item: TGI tested on SF-268 CNS, entry CN(C)CC1CCC(CN(C)C)C1=O (stereo unspecified) , value?
Result block: 42.4 µM

Query block: Form field - read-out: TGI; system: SF-268 CNS; submitted item: O=C(Nc1ccc(Cl)c(Cl)c1)NS(=O)(=O)c1cnccc1Oc1ccc(F)cc1
Result block: > 100 µM

Query block: Please tell me: TGI of O=C(N/N=C/c1cccc(F)c1)c1ccncc1 , system SF-268 CNS?
Result block: > 100 µM

Query block: Enter reported TGI observed with SF-268 CNS for CNC(=O)c1nn(C)c2c1C(C)(C)Cc1cnc(Nc3ccc(N4CCN(C)CC4)cc3)nc1-2
Result block: > 10 µM

Query block: Find the measured TGI: item COC(=O)/C(C#N)=C(/NCCN)Nc1ccccc1 , target or system SF-268 CNS.
Result block: > 100 µM

Query block: Form field: TGI recorded for CN(C)C(=S)/N=c1\ssc(=S)n1Cc1ccncc1 with SF-268 CNS (enter value)
Result block: > 100 µM

Query block: Request body: readout TGI, system SF-268 CNS, query C=C1C(O)CC[C@]2(C)C1C1OC(C)(C)O[C@]13CC(=O)C(C)=C([C@H]1OC(C)(C)OC12)C3(C)C (stereo partly specified) . Return the value.
Result block: > 100 µM

Reference source for all entries: PubChem BioAssay (NCI)
